B1: glmS ribozyme (parent)
chain: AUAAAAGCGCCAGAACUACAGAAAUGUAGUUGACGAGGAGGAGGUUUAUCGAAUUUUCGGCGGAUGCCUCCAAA

- Variants of: B1
- assay procedure: self-cleavage kobs at 160 uM GlcN6P; higher = faster cleavage; RNA array
- applied conditions: with glucosamine-6-phosphate
This sample holds only a part of the variants without activity.

{"input sequence": "AUAAAAGCGCCAGAACUACAGAAAUGUAGUUGACGAGGUGGAGGUUUAUCGAAUUUUCGGCGGAUGCUUCCAAA [A39U C68U]", "self-cleavage kobs at 160 uM GlcN6P": "0.000829 s⁻¹"}
{"input sequence": "AUAAAAGCGCCAGAACUACAGAAAUGUAGUUGAAGAGGAGGAGGUUUAUGGAAUUUUCGGCGGAUGCCUCUAAA [C34A C50G C71U]", "self-cleavage kobs at 160 uM GlcN6P": "0.000155 s⁻¹"}
{"input sequence": "AUAAAAGCGCCCGAACUACAGAAAUGUAGUUGACGAGGAGGGGGUUUAUCGAAUUUUCGGCGGAUGCCUCCAAA [A12C A42G]", "self-cleavage kobs at 160 uM GlcN6P": "0.00222 s⁻¹"}
{"input sequence": "AUAAAAGCGCCAUAACUACAGAAAUGUAGUUGUCGAGGAGGAGGUUUAUCGAAUUUUCGGCGGAUGCCUCCAAA [G13U A33U]", "self-cleavage kobs at 160 uM GlcN6P": "< 1e-05 s⁻¹"}
{"input sequence": "AUAAAAGCGCCAGAACUACAGAAAUGUAGCGGACGAGGAGGAGGUUUAUGGAAUUUUCGGCGGAUGCCUGCAAA [U30C U31G C50G C70G]", "self-cleavage kobs at 160 uM GlcN6P": "0.000158 s⁻¹"}
{"input sequence": "AUAAAAGCGCCAGUACUACAGAAAUGUAGUAGACGAGGAGGAGGUUAAUCGAAUUUUCGGCGGAUGCCUCCAAA [A14U U31A U47A]", "self-cleavage kobs at 160 uM GlcN6P": "0.000611 s⁻¹"}
{"input sequence": "AUAAAAGCGCCAGAACUACAGAAAUGUAGUUGACGAGGAUGAGGUUUAUCGAAUUUUCGGCGGAUGCAUCCAAA [G40U C68A]", "self-cleavage kobs at 160 uM GlcN6P": "< 1e-05 s⁻¹"}
{"input sequence": "AUAAAAGCGCCGGAACUACAGAAAUGUAGUUUACGAGGAGGAGGUUUAUCGAAUUUUCGGCGGAUGCCUUCAAA [A12G G32U C70U]", "self-cleavage kobs at 160 uM GlcN6P": "0.000103 s⁻¹"}
{"input sequence": "AUAAAAGCGCCAGGACUACAGAAAUGUAGUUGACUAGGAAGAGGUUUAUCGAAUUUUCGGCGGAUGCCUCCAAA [A14G G35U G40A]", "self-cleavage kobs at 160 uM GlcN6P": "< 1e-05 s⁻¹"}
{"input sequence": "AUAAAACCGCCAGAACUACAGAAAUGUAGUUGACGAUGAGGAGGUUUAUCGAAUUUUCGGCGGAUGCCUCCAAA [G7C G37U]", "self-cleavage kobs at 160 uM GlcN6P": "< 1e-05 s⁻¹"}
{"input sequence": "AUAAAAGCCCCAUAACUACAGAAAUGUAGUUGACGAGGAGGAGGUUUAUCGAAUUUUCGGCGGAUGCCUCCAAA [G9C G13U]", "self-cleavage kobs at 160 uM GlcN6P": "< 1e-05 s⁻¹"}
{"input sequence": "AUAAAAGCGCCAGCCCUACAGAAAUGUAGUUGACGAGGAGGAGGUUUUUCGAAUUUUCGGCGGAUGCCUCCAAA [A14C A15C A48U]", "self-cleavage kobs at 160 uM GlcN6P": "< 1e-05 s⁻¹"}
{"input sequence": "AUAAAAGCGCCACAAAUACAGAAAUGUAGUUGACGAGGAGGAGGUUUAUCGAAUUUUCGGCGGAUGCUUCCAAA [G13C C16A C68U]", "self-cleavage kobs at 160 uM GlcN6P": "< 1e-05 s⁻¹"}
{"input sequence": "AUAAAAGCGCCAGAACUACAGAAAUGUAGUUGACGAGAAGGAGGUGUAUCGAAUUUUCGGCGGAUGCCUCCAAA [G38A U46G]", "self-cleavage kobs at 160 uM GlcN6P": "< 1e-05 s⁻¹"}
{"input sequence": "AUAAAAGCUCCAGAACUACAGAAAUGUAGUUGCCGAGGAGGAGGUUUAUCGAAUUUUCGGCGGAUGGCUCCAAA [G9U A33C C67G]", "self-cleavage kobs at 160 uM GlcN6P": "< 1e-05 s⁻¹"}
{"input sequence": "AUAAAAGCGCCAGAACUACAGAAAUGUAGUUGACGAGGAGUAGGGUUAUCGAAUUUUCGGCGGAUGCCUCCAAA [G41U U45G]", "self-cleavage kobs at 160 uM GlcN6P": "3.13e-05 s⁻¹"}
{"input sequence": "AUAAAAGCGCCAGAACUACAGAAAUGUAGUUGCCGAGGACGAGGUUUAUCGGAUUUUCGGCGAAUGCCUCCAAA [A33C G40C A52G G63A]", "self-cleavage kobs at 160 uM GlcN6P": "< 1e-05 s⁻¹"}
{"input sequence": "AUAAAAGCGCCAGAACUACAGAAAUGUAUUUAACGAGGAGGAGGUUUAUCGAAUUUUCGGCGGAUGCCUCCAAA [G29U G32A]", "self-cleavage kobs at 160 uM GlcN6P": "0.000105 s⁻¹"}
{"input sequence": "AUAAAAGCGCCAGACCUACAGAAAUGUAGUUGACGAGGAGGAGGUUUACCGAAUUUUCGGCGGAUGCCUCCAAA [A15C U49C]", "self-cleavage kobs at 160 uM GlcN6P": "< 1e-05 s⁻¹"}
{"input sequence": "AUAAAAGCGCCAGAACUACAGAAAUGUAGUUGAGGAGGAGGAGGGUUAUCGAAUUUUCGGCGGAUGCCUACAAA [C34G U45G C70A]", "self-cleavage kobs at 160 uM GlcN6P": "< 1e-05 s⁻¹"}
{"input sequence": "AUAAAAGGGCCAGAACUACAGAAAUGUAGUUGACGAGGAGGAGAUUUAUCGAAUUUUCGGCGGAUGCCUCCAAA [C8G G44A]", "self-cleavage kobs at 160 uM GlcN6P": "< 1e-05 s⁻¹"}
{"input sequence": "AUAAAUGCGCCAGAACUACAGAAAUGUAGUUGACGAGGAGGAGGUUUAUCGAAUUUUCGGCGGAGGCCUUCAAA [A6U U65G C70U]", "self-cleavage kobs at 160 uM GlcN6P": "< 1e-05 s⁻¹"}
